Numbers sourced from PubChem BioAssay (NCI).

# Test system: MDA-MB-435 melanoma
# test description: NCI-60 one-dose screen, 48 h
# conditions used: 10 µM unless noted
This is part of a sample that, as a whole, favours compounds with a hit. Of some 83,000 tested, about 20% had one in any assay. Active and inactive are the calls of the source. How the source made its calls: active means growth percent below 10; inactive means the rest.
Pick one and only one: active, inactive

Answered cases to consult:
>  <compound>
COc1cc(/C=C/C(=O)c2c(C)oc3nc[nH]c(=O)c23)cc(OC)c1OC

>  <class>
inactive

$$$$
>  <compound>
CCOC(=O)n1cc(-c2nonc2-c2cn(C)c3ncccc23)c2cc(F)ccc21

>  <class>
inactive

$$$$
>  <compound>
CN(C)S(=O)(=O)c1ccc(S(=O)(=O)Nc2cccc(Cl)c2N2CCCCC2)cc1

>  <class>
inactive

$$$$
>  <compound>
O=C(COc1cccc(/C=C2\COc3ccccc3C2=O)c1)Nc1nccs1

>  <class>
inactive

$$$$
>  <compound>
COc1ccc2c(c1)c(-c1nonc1-c1cn(C)c3ccccc13)cn2C

>  <class>
active

$$$$
>  <compound>
Cn1cc(-c2nonc2-c2c[nH]c3ccc(F)cc23)c2cccnc21

>  <class>
inactive

$$$$
>  <compound>
COc1ccc(/C=C(\C#N)C(=O)Nc2cccc(Nc3nc(SC)nc(-c4cccc([N+](=O)[O-])c4)c3C#N)c2)cc1OC

>  <class>
inactive

$$$$
>  <compound>
COc1cc2c(cc1-c1c(C)noc1C)ncc1nc(C3CCCCC3)n([C@H](C)COC(F)F)c12

>  <class>
inactive

$$$$

Query block: Test call for this compound, please: CCn1c(O)c(/C=N/NC(=O)C(C)c2ccc(CC(C)C)cc2)sc1=S (stereo unspecified)
Result block: active

Query block: Kindly provide the recorded test outcome for the following compound: `Cn1cc(C(=O)c2nc(-c3c[nH]c4ccc(F)cc34)no2)c2cc(F)ccc21`
Result block: inactive

Query block: State the result this test recorded for `O=C(COc1cccc(/C=C2\COc3ccc(Cl)cc3C2=O)c1)c1ccc(Cl)cc1` .
Result block: inactive

Query block: Kindly provide the recorded test outcome for the following compound: `CC(=O)Oc1ccc(Cl)cc1CN(C(C)=O)C1CCCCC1`
Result block: inactive

====

# Tested on: HCT-15 colon
# test description: NCI-60 one-dose screen, 48 h
# conditions used: 10 µM unless noted
About 83,000 compounds went through this panel and 20% of them were active in at least one assay; those are over-represented in the sample as a whole. Active and inactive are the calls of the source. How the source made its calls: active means growth percent below 10; inactive means the rest.
Would you mind answering with one of these outcomes? active, inactive

Study these solved cases before continuing.
>  <compound>
O=C(O)c1c(=O)cccc2ssc12

>  <experimental target>
HCT-15 colon

>  <class>
active

$$$$
>  <compound>
O=C(N(c1ccccc1)c1ccccc1)n1ccc2nc(Cl)nc(Cl)c21

>  <experimental target>
HCT-15 colon

>  <class>
inactive

$$$$
>  <compound>
O=C1Nc2c(ccc(Cl)c2Cl)/C1=C\c1cc(C(F)(F)F)cc(C(F)(F)F)c1

>  <experimental target>
HCT-15 colon

>  <class>
active

$$$$
>  <compound>
CC(C)n1c(/C=C/[C@@H](O)C[C@@H](O)CC(=O)O)c(-c2ccc(F)cc2)c2ccccc21

>  <experimental target>
HCT-15 colon

>  <class>
inactive

$$$$
>  <compound>
COc1ccc(-c2cc(=O)c3c(OC)c4ccoc4cc3o2)cc1

>  <experimental target>
HCT-15 colon

>  <class>
inactive

$$$$

# ---- query compound ----
Query block: Tell me the recorded outcome of this test for CC[C@@H](C(=O)[C@@H](C)[C@@H](O)[C@H](C)[C@@H]1O[C@@H]([C@@H](CC)C(=O)O)CC[C@@H]1C)[C@H]1OC2(C=C[C@@H](O)[C@]3(CC[C@@](C)([C@H]4CC[C@](O)(CC)[C@H](C)O4)O3)O2)[C@H](C)C[C@@H]1C (stereo partly drawn) .
Result block: inactive
